Biological target: Beta-2 adrenergic receptor (Homo sapiens)
Assay: agonist-induced loss of surface beta2AR – cell-based, FAP fluorogen, flow cytometry, validation set, pilot screen (AID 504459);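 note: agonist-driven loss of surface beta2AR via internalization measured by FAP dye flow cytometry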
Conditions: Am2.2-beta2AR cells, at 10 µM, stronger effect = higher value
ENDPOINT LABEL: response (%)
Field: numeric (%). Do not append units.

Worked examples, 10 compounds total:
compound=S=C(NCCOCCOCCNC(=S)Nc1ccccc1)Nc1ccccc1 target_under_test="Beta-2 adrenergic receptor (Homo sapiens)" data_value=2.38
compound="COc1ccc2c3c([nH]c2c1)C1(NCC3)C(=O)Nc2ccccc21 (configuration not stated)" target_under_test="Beta-2 adrenergic receptor (Homo sapiens)" data_value=-10.9
compound=Cc1ccccc1N1C(N)=NC(N)=NC1(C)C target_under_test="Beta-2 adrenergic receptor (Homo sapiens)" data_value=7.98
compound="COc1cccc(OCC(O)CO)c1 (configuration not stated)" target_under_test="Beta-2 adrenergic receptor (Homo sapiens)" data_value=3.25
compound="O=C(O)C1CSC(c2ccco2)N1 (configuration not stated)" target_under_test="Beta-2 adrenergic receptor (Homo sapiens)" data_value=-18.6
compound="Cc1ccsc1C1NC(=O)c2ccccc2N1 (configuration not stated)" target_under_test="Beta-2 adrenergic receptor (Homo sapiens)" data_value=-6.32
compound=Nc1nnc(CSCc2ccc(Cl)cc2Cl)s1 target_under_test="Beta-2 adrenergic receptor (Homo sapiens)" data_value=-6.41
compound="CC12COC3(C(=O)Nc4ccc(F)cc4)CC1CCC32C (configuration not stated)" target_under_test="Beta-2 adrenergic receptor (Homo sapiens)" data_value=-12.6
compound="COc1ccccc1/C=C/CN1CCN(Cc2ccc(F)cc2)C(CCO)C1 (configuration not stated)" target_under_test="Beta-2 adrenergic receptor (Homo sapiens)" data_value=9.17
compound=CN1C(C(=O)Nc2ccccn2)=C(O)c2ccccc2S1(=O)=O target_under_test="Beta-2 adrenergic receptor (Homo sapiens)" data_value=-12.3

**Query** Give me measured response, please, for this compound: CC1(c2ccccc2)CC(C)(C)N2C(=O)C(=O)c3cccc1c32 (configuration not stated)
**Result** 20.4

**Query** Identify response associated with the compound CC(CCCC(C)(C)O)NC(=O)c1ccc(OC2CCN(C(=O)C3CC3)CC2)cc1 (configuration not stated)
**Result** -15.1

###

Assay: calorie-restriction mimetic ROS inhibitors, yeast – validation compound set, pilot screen (AID 2706);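 note: yeast exposed to compound for one week at 30 degrees C before staining; 100% = mean of all compound wells on the same plate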
Settings: S. cerevisiae aging, superoxide DHE fluorescence; at 10 µM; stronger effect = lower value
Reported superoxide response (% of plate) is given for each of the following compounds.
Field format: number, assumed %, no unit text.

The cases that follow already have their superoxide response (% of plate) on record.
compound="CCOc1cc2c(cc1OCC)C(c1ccccc1)N(c1ccc(C(=O)O)cc1)C(=O)C2 (stereo not given)" unit_spec=% data_value=92
compound=C[C@H]1C[C@@H]2[C@H]([C@@H](O)C[C@@]3(C)[C@H]2CC[C@]3(O)C(=O)CO)[C@@]2(C)C=CC(=O)C=C12 unit_spec=% data_value=88.9
compound=COc1cc(SC)ccc1C(=O)NC(C)C unit_spec=% data_value=97.8
compound=CC(C)(C)OC(=O)COc1cc(OCC(=O)OC(C)(C)C)c2c(=O)cc(-c3ccccc3)oc2c1 unit_spec=% data_value=94.8

Please turn your attention to the following entry.
**Query** Please report superoxide response (% of plate) for the following compound: O=c1c(-c2ccccc2)c(O)c2cccc3c2n1CCC3
**Result** 108

###

Molecular target: GTPase HRas (Homo sapiens)
Experiment: Ras wt fluorescent GTP loading blockade – biochemical, wildtype, multiplex bead flow cytometry, dose response (AID 1335)
Settings: bead-based flow cytometry, Bodipy-GTP binding to GST-Ras; at 100 µM (top of the series) unless noted
Listing of recorded GTP binding, percent of control by entry.
Write the number in % without appending the unit.

Answered cases to consult:
query_smiles=NC(=O)NOCc1ncc(C(F)(F)F)cc1Cl data_value=81.2
query_smiles=O=C(C#Cc1ccc(-c2ccccc2)cc1)c1ccc([N+](=O)[O-])cc1 data_value=196
query_smiles=Nc1cccc(S(=O)(=O)c2cccc(N)c2)c1 data_value=150
query_smiles=Cc1nc(Nc2ccc(C(=O)O)cc2)nc(Nc2ccc(C(=O)O)cc2)c1[N+](=O)[O-] data_value=64.9

**Query** Respond only with GTP binding, percent of control recorded for Nc1[nH]n2c(=O)c3c(nc2c1N=Nc1ccc(Cl)cc1)CCCC3
**Result** 49.2

**Query** Return GTP binding, percent of control for the following molecule: Cn1c(N/N=C/c2ccccc2)nc2sc3c(c2c1=O)CCC3
**Result** 117

###

System: anti-desmoglein-3 scFv antibody binding to human DSG3
Assay: blockers of pathogenic pemphigus antibody–desmoglein-3 binding – biochemical, validation compound set, bead-based, flow cytometry, pilot screen (AID 588368);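 note: signal is the median channel fluorescence of bead-bound GFP antibody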
Conditions: Protein G beads, DSG3-Fc, scFv-GFP binding, at 10 µM, stronger effect = lower value
ENDPOINT LABEL: binding (% of control) (%)
Numbers only; they are read as %.

**Query** Report measured binding (% of control); entry is N=c1nc(N2CCCCC2)cc(N)n1O
**Result** 98.5

**Query** Identify measured binding (% of control) associated with Cc1ccc2c(CC(=O)O)coc2c1
**Result** 95.5

**Query** Let me know recorded binding (% of control) for CC(C)(CO)CNC(=O)CC1C(=O)NCCN1CC(c1ccccc1)c1ccccc1 (configuration not stated) , thanks.
**Result** 99.5

**Query** Look up binding (% of control) of COC(=O)C1=C(C)N(C)C(=S)NC1c1ccc(Cl)cc1 (configuration not stated) and report it.
**Result** 97.9

**Query** Return binding (% of control) (reported value) for this compound: CS(=O)(=O)NCc1ccc(C(=O)NCc2ccccc2)cc1
**Result** 98.7

###

Target: Guanine nucleotide-binding protein G(o) subunit alpha (Homo sapiens) (UniProt P09471)
Sequence (P09471 whole entry, looked up): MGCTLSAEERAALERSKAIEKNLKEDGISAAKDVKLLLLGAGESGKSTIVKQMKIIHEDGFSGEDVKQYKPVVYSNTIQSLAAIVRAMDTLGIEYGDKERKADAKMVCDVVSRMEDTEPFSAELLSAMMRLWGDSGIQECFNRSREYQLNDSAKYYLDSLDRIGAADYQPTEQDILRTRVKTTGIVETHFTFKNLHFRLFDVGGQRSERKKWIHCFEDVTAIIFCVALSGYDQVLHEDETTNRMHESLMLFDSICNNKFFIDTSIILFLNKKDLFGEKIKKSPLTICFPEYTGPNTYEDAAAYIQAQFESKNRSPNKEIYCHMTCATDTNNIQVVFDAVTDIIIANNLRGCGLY
Experiment: retest of RGS7-Galphao interaction hits – biochemical, multiplexed bead flow cytometry, single concentration, confirmation (AID 1837);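 note: fluorescent Galphao activated with GDP and aluminum fluoride binding bead-coupled RGS7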
Details: bead-based flow cytometry RGS7-Galphao binding; at 10 µM; actives lie on both sides
The other results are listed elsewhere or left out. Active and inactive are the calls of the source. No stated cut-off is given here; in the data, active means response below about 75% or above about 130%; inactive means in between.
Your answer must be one of the following: class 1 for active, class 0 for inactive

molecule=COc1ccc(CCNC(=O)c2cc3sccc3n2C)cc1OC target_under_test="Guanine nucleotide-binding protein G(o) subunit alpha (Homo sapiens) (UniProt P09471)" classification="class 0"
molecule=COc1ccccc1-n1c(-c2cc(-c3ccco3)[nH]n2)n[nH]c1=S target_under_test="Guanine nucleotide-binding protein G(o) subunit alpha (Homo sapiens) (UniProt P09471)" classification="class 0"
molecule="Cc1cc(C)nc(/N=C2\\NC(=O)CC(C(=O)O)N2c2ccc(Cl)cc2Cl)n1 (stereo unspecified)" target_under_test="Guanine nucleotide-binding protein G(o) subunit alpha (Homo sapiens) (UniProt P09471)" classification="class 0"

**Query** Assay result, entry CC(=O)N1CC[n+]2c(-c3ccc([N+](=O)[O-])cc3)csc21 — outcome?
**Result** class 1

**Query** Record lookup: outcome of this test for CCCn1c(C)cc(C(=O)COC(=O)c2c(C)nn(-c3ccccc3)c2C)c1C ?
**Result** class 0

**Query** Can you look up the reported call for Cc1c(Br)cc(C(=O)N2CCCCCC2)c(C)c1C for me?
**Result** class 0

**Query** Returns: the outcome recorded for CN(C)CCN=c1cc(-c2ccccc2)oc2ccc(Cl)cc12 in this assay.
**Result** class 0

**Query** Tell me the recorded outcome of this test for CCC(=O)Nc1c(S(=O)(=O)c2ccccc2)c2nc3ccccc3nc2n1Cc1ccccc1 .
**Result** class 0

**Query** For COCCNC(=S)N/N=C/c1c(C)[nH]c2ccccc12 , what call appears in the results of this test?
**Result** class 1

**Query** # lookup: test call for CC(C)(C)NC(=O)c1cccc(NC(=O)Cc2ccc(Br)cc2)c1
**Result** class 0

**Query** Please share the test call associated with Cc1ccccc1CS(=O)(=O)CC1(O)CCN(C(=O)c2cccc(C(F)(F)F)c2)CC1 .
**Result** class 0

###

Target: Cell division control protein 42 homolog (Homo sapiens) (UniProt P60953)
Sequence (P60953 whole entry, looked up): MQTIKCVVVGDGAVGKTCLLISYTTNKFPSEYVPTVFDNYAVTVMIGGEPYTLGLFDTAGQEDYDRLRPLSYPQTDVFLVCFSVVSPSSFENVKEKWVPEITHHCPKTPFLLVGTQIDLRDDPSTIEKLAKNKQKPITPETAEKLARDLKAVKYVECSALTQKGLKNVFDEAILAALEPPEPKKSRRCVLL
Assay: inhibition of fluorescent GTP binding to wildtype Cdc42 – biochemical, multiplex bead flow cytometry, Bodipy-FL-GTP, dose response (AID 1334)
Settings: bead-based flow cytometry, Bodipy-FL-GTP binding to GST-Cdc42; at 100 µM (top of the series) unless noted
Potency and affinity values are given separately.
Classify on fluorescence, percent of control (lower = inhibition) using interval 1: < 40%; interval 2: ≥ 40% and < 60%; interval 3: ≥ 60%

query_smiles=NC(=O)N=Nc1c(O)[nH]c2c(Br)cc(Br)cc12 classification="interval 1"
query_smiles=Cc1nc2ccccn2c1-c1csc(Nc2cccc(O)c2)n1 classification="interval 1"
query_smiles=COc1ccc(S(=O)(=O)Cc2ccc(C(=O)N3CCN(c4cccc(C)c4C)CC3)o2)cc1 classification="interval 2"

**Query** Returns: class label. Input: O=c1[nH]c(N/N=C\c2ccc3c(c2)OCO3)nc2ccccc12
**Result** interval 3
